Listing of entries alongside the reported Ki.
- study_system: PCSK9 (Homo sapiens, UniProt Q8NBP7)
- Construct: biotin (biotinylated); purchased
- Sequence (Q8NBP7 153-692): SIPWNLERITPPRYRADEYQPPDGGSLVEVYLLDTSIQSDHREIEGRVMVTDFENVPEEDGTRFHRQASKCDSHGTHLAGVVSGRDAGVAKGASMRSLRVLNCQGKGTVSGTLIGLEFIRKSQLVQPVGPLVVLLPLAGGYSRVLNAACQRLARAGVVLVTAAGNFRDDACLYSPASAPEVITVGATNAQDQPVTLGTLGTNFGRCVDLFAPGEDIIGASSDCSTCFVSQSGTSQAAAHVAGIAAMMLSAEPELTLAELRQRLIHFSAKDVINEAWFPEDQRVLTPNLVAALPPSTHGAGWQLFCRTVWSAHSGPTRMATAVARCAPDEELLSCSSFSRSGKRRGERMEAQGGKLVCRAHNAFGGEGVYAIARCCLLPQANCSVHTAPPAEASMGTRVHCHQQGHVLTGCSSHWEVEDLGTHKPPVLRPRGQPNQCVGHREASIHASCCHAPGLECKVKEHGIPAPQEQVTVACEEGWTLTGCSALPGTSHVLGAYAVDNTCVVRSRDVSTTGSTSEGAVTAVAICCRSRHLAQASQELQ
- experimental_protocol: PCSK9 Alexa FRET Ultra TR-FRET assay
- Assay type: binding
- run_conditions: Ki Ultra, calculated from IC50 and KD of AF cyclic peptide; 0.5 nM PCSK9, 960 nM AF cyclic peptide; read-out: Alexa FRET Ultra TR-FRET
Write it as a number; the unit pM goes unstated.

Prompt line: # value lookup — system PCSK9 (Homo sapiens, UniProt Q8NBP7), readout Ki, item COc1ccc(C[C@@H]2NC(=O)[C@H]([C@@H](C)O)NC(=O)[C@@H]3[C@@H]4CCN3C(=O)[C@@H]3Cc5cn(c6ccc(F)cc56)CCCCCCN(Cc5ccc(cc5)CCNC(=O)[C@]5(C)CCCN5C2=O)C(=O)CCC(=O)N[C@@H](C)C(=O)N[C@H](CNC(=O)CCOCCOCC[N+](C)(C)CCNS(=O)(=O)CCCNS(=O)(=O)CCCNC(=O)CC[C@H](NC(=O)CCCCCCCCCCCCCCCCC(=O)O)C(=O)O)C(=O)N[C@@H](Cc2cccc(c2)CNC(=O)CO4)C(=O)N3)cc1 [Ex-68]
Response line: 5

Prompt line: # value lookup — system PCSK9 (Homo sapiens, UniProt Q8NBP7), readout Ki, item COc1ccc(C[C@@H]2NC(=O)[C@H]([C@@H](C)O)NC(=O)C3C4CCN3C(=O)[C@@H]3Cc5cn(c6ccc(F)cc56)CCCCCCN(Cc5ccc(cc5)CCNC(=O)[C@]5(C)CCCN5C2=O)C(=O)CCC(=O)N[C@@H](C)C(=O)N[C@H](CNC(=O)CCOCCOCC[N+](C)(C)CCNC(=O)CCOCCOCC[N+](C)(C)CCNC(=O)COCCOCCNC(=O)COCCOCCNC(=O)CCCCCCCCCCCCCCC(=O)O)C(=O)N[C@@H](Cc2cccc(c2)CNC(=O)CO4)C(=O)N3)cc1 [compound 43]
Response line: 2
